target: human ether-à-go-go-related gene (hERG) potassium channel (human, UniProt Q12809); experiment: primary screen, population patch clamp on CHO cells stably expressing hERG; higher = less effect of the substance;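 further: peak tail current of the secondary pulse compared with the same well before compound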
Sequence (Q12809 whole entry, looked up): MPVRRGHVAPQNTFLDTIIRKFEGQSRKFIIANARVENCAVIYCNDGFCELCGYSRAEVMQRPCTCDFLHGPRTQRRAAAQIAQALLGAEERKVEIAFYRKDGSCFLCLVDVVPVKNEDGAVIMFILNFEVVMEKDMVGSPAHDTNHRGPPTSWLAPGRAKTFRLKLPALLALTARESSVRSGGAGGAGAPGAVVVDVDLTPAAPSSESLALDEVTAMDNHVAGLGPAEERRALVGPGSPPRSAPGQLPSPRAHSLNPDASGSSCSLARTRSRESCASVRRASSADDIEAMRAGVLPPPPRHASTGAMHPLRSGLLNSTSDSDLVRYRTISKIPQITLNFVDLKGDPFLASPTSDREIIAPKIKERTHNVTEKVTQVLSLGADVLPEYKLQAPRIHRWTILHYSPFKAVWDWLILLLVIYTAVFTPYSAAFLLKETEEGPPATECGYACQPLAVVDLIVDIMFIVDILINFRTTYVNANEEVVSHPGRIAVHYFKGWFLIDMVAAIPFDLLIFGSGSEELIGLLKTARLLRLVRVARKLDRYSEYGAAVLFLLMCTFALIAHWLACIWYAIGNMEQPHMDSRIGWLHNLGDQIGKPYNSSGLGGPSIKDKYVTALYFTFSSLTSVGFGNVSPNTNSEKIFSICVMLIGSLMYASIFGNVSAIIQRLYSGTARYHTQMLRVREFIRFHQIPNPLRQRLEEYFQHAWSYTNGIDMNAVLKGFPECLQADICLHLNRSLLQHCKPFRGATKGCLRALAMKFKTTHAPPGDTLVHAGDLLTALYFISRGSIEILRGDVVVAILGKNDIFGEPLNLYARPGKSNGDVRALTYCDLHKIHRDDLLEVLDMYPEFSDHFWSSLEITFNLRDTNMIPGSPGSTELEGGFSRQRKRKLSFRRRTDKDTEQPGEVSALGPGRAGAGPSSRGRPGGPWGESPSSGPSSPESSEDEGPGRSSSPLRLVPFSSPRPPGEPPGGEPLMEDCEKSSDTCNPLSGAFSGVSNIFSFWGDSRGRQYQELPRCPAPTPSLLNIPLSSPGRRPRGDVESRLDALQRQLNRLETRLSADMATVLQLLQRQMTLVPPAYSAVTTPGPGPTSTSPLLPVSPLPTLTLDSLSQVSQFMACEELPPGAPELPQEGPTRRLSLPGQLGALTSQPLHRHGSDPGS
About 14,000 (4.5%) of roughly 310,000 compounds showed an effect of 50% or more. Effects have a minus sign here. The sample holds strong results, similar compounds and a random draw of the others, so the mix is not that of the screen.
Please use class 1 whenever hERG current change (%, negative = inhibition) at 10uM is not below -40%, and class 0 whenever it is.

Consider the worked cases shown below.
| Compound | Experimental target | Assigned category |
| --- | --- | --- |
| O=C(CN(c1ccccc1)S(=O)(=O)c1ccccc1)N1CCOCC1 | human ether-à-go-go-related gene (hERG) potassium channel (human, UniProt Q12809) | class 1 |
| CC1=NN(c2cccc(F)c2)C(=O)/C1=C/c1ccc(N(C)C)cc1 | human ether-à-go-go-related gene (hERG) potassium channel (human, UniProt Q12809) | class 1 |
| Cc1ccc(CCN2CC(C(=O)O)CC2=O)cc1 (stereo not drawn) | human ether-à-go-go-related gene (hERG) potassium channel (human, UniProt Q12809) | class 1 |
| Cc1cc(C)cc(N(CC(=O)N2CCC(C)CC2)S(C)(=O)=O)c1 | human ether-à-go-go-related gene (hERG) potassium channel (human, UniProt Q12809) | class 1 |
| O=C(O)C1CC(=O)N(CCc2ccc(F)cc2)C1 (stereo not drawn) | human ether-à-go-go-related gene (hERG) potassium channel (human, UniProt Q12809) | class 1 |

hERG current change (%, negative = inhibition) at 10uM >= -40% for `Cc1ccc(S(=O)(=O)N(CC(=O)N2CCC(C)CC2)c2cccc(C)c2)cc1` ?
class 0
